Quick reference for melting point among some molecules
Give the value in °C but do not write °C after it.

Cn1cnnc1C(OCCO)(c1ccc(F)cc1)c1cc2c3c(c1)c(-c1cccc(Cl)c1)cc(=O)n3CC2 (stereo not drawn)    138
COC(c1ccc(Cl)cc1)(c1cc2c3c(c1)c(-c1cccc(Cl)c1)cc(=O)n3CCC2)c1nncn1C (stereo not drawn)    132
Cn1cnnc1C(c1ccc(C#N)cc1)c1cc2c3c(c1)c(-c1cccc(Cl)c1)cc(=O)n3CC2 (stereo not drawn)    174

**Q:** Bench note: what melting point did Cn1cnnc1C(O)(c1ccc(Cl)cc1)c1cc2c3c(c1)c(-c1cccc(Cl)c1)cc(=O)n3CCC2 (stereo not drawn) show?
**A:** 183

**Q:** Request the reported melting point associated with Cn1cnnc1C(c1ccc(I)cc1)c1cc2c3c(c1)c(-c1cccc(Cl)c1)cc(=O)n3CC2 (stereo not drawn) (hydrate or solvate)
**A:** 194

**Q:** Form field: reported melting point of CC(=O)NC(c1ccc(F)cc1)(c1cc2c3c(c1)c(-c1cccc(Cl)c1)cc(=O)n3CC2)c1nncn1C (stereo not drawn)
**A:** 196
